- testProtocol: Rat PK at equimolar dose to Ezogabine in 0.5% methylcellulose
- conditions: male, rat, in vivo, 20 mg/kg
endpointLabel: AUClast/D, analyte = dosed prodrug (ng·h/mL/mg/kg)
One number for each entry, in ng·h/mL/mg/kg.

Recorded AUClast/D, analyte = dosed prodrug, per entry:
# compound, measurementUnits, AUClast/D, analyte = dosed prodrug
rows = [
    ("CCOC(=O)Nc1ccc(NCc2ccc(F)cc2)cc1NC(=O)[C@H](N)CO [Compound 6]", "ng·h/mL/mg/kg", 199),
    ("CCOC(=O)Nc1ccc(NCc2ccc(F)cc2)cc1NC(=O)[C@@H](N)CCCCN [Compound 4]", "ng·h/mL/mg/kg", 6.26),
    ("CCOC(=O)Nc1ccc(NCc2ccc(F)cc2)cc1NC(=O)C[C@@H](CN)CC(C)C [Compound 28]", "ng·h/mL/mg/kg", 83.0),
]

Incoming: Name the recorded AUClast/D, analyte = dosed prodrug for CCOC(=O)Nc1ccc(NCc2ccc(F)cc2)cc1NC(=O)OC(C)OC(=O)C(C)C (stereo not shown) [Compound 3] .
Outgoing: 0.0136
